# TARGET: human KDR on cells (human, UniProt P35968 20-1356)
# Sequence (P35968 20-1356): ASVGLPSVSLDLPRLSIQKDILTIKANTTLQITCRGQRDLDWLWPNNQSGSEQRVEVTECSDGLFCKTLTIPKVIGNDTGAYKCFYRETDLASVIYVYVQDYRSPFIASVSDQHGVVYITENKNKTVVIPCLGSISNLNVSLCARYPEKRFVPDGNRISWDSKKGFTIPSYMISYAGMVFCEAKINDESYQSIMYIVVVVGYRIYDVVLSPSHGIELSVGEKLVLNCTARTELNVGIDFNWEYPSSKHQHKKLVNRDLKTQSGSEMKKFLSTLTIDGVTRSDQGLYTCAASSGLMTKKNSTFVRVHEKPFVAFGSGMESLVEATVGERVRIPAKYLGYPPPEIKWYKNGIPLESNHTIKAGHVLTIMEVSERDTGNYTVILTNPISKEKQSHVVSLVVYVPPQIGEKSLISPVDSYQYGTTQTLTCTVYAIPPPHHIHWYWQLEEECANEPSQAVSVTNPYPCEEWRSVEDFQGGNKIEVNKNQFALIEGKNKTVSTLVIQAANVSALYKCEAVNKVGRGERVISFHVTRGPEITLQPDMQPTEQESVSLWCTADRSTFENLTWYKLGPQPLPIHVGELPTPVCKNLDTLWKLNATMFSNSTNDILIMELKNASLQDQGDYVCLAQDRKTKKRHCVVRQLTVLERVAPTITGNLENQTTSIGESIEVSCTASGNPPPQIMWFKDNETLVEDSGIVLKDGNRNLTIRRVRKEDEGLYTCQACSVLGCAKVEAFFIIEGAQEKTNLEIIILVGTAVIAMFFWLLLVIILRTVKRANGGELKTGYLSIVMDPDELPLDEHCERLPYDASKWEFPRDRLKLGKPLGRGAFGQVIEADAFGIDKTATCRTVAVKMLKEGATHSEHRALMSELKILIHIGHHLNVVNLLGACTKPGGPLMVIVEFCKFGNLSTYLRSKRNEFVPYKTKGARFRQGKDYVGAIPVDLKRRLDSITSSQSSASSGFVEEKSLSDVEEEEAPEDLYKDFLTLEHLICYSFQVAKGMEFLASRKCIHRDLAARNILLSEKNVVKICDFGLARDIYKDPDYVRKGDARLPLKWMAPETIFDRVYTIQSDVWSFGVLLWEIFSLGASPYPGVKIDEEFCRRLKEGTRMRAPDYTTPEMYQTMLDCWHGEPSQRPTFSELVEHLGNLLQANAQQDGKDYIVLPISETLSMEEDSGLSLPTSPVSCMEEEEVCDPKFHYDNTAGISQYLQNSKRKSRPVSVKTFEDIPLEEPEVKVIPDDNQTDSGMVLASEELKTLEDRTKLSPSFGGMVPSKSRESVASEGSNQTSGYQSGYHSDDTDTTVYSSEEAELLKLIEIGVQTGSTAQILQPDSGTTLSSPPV
# TEST NAME: cell-based or functional assay
Below, each entry is listed alongside its reported % Inhibition (Average) of VEGF-C-mediated KDR activity, antibody 100 nM.
READOUT TYPE: % Inhibition (Average) of VEGF-C-mediated KDR activity, antibody 100 nM (%)

INSERT INTO measurements (binder, quantity_unit, numeric_readout) VALUES
  ('22B8 (antibody, V domains shown) VH: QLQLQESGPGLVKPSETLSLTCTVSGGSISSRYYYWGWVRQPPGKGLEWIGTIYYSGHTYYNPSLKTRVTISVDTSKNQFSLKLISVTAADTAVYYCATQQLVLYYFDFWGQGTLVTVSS VL: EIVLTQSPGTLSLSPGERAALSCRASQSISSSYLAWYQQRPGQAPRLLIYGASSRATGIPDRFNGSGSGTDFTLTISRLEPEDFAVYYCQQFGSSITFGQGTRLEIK', '%', 74),
  ('24B3 (antibody, V domains shown, Purified fully human monoclonal antibody from XenoMouse hybridoma (IgG2 or IgG4 strains); also called MAb 24B3) VH: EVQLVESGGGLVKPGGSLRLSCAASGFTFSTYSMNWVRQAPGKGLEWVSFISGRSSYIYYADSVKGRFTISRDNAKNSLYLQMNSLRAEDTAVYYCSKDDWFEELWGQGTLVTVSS VL: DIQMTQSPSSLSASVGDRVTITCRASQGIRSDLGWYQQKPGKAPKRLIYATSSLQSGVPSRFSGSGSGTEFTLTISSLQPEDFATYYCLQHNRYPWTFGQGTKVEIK', '%', 71),
  ('27A3 (antibody, V domains shown) VH: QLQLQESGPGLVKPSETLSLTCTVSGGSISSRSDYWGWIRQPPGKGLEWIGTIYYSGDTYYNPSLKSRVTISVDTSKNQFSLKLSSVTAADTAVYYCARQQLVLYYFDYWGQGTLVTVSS VL: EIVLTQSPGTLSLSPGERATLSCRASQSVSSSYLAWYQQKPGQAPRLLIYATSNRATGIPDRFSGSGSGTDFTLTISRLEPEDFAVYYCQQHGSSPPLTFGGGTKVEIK', '%', 75),
  ('33C3 (antibody, V domains shown, Purified fully human monoclonal antibody from XenoMouse hybridoma (IgG2 or IgG4 strains); also called MAb 33C3) VH: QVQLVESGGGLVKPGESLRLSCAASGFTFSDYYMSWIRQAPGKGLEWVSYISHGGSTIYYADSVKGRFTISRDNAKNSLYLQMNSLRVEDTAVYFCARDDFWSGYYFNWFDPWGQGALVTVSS VL: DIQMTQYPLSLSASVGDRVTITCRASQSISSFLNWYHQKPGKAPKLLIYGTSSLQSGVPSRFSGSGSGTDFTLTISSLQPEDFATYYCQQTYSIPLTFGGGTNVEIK', '%', 85);
